# target-under-test: UniProt Q06124
# test-summary: SHP2 degradation by Western blot in MV4;11 cells
# condition-summary: 0.1 µM
% of SHP2 protein degradation in MV4;11 cell line values, listed per item
Kindly provide the numeric value in % only, without the unit symbol.

- Cc1ncsc1-c1ccc([C@@H](C)NC(=O)[C@H]2C[C@H](O)CN2C(=O)[C@H](NC(=O)CCCCCCCCCCCCCCC(=O)Nc2cccc(Sc3ncc(N4CCC(C)(N)CC4)nc3N)c2Cl)C(C)(C)C)cc1: 8

# input for lookup
Input `Cc1ncsc1-c1ccc([C@H](C)NC(=O)[C@@H]2C[C@@H](O)CN2C(=O)[C@@H](NC(=O)CCOCCOCCOCCNC(=O)CC(=O)Nc2cccc(Sc3ncc(N4CCC5(CCC[C@@H]5N)CC4)nc3N)c2Cl)C(C)(C)C)cc1` , output reported % of SHP2 protein degradation in MV4;11 cell line.
94

====

# target-under-test: UniProtKB Q06124
# Sequence (Q06124 1-593): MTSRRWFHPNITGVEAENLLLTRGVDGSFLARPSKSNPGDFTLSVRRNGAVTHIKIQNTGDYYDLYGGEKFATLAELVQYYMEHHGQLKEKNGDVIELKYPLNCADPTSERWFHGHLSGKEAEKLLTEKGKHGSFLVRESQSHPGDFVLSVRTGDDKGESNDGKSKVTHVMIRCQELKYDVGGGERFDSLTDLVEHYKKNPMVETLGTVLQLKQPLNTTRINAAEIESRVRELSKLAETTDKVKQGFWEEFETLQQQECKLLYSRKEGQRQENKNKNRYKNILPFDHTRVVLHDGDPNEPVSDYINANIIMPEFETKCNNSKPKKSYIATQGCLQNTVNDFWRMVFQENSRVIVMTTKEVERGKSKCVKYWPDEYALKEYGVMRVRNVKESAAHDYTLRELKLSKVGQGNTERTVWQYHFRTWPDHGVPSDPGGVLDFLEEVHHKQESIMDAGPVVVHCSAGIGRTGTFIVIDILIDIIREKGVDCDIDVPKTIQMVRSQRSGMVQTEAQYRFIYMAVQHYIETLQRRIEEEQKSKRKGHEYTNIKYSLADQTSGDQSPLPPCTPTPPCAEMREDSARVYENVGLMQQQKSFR
# test-summary: SHP2 degradation by Western blot in MV4;11 cells
# condition-summary: 0.1 µM
% of SHP2 protein degradation in MV4;11 cell line values, listed per item
Kindly provide the numeric value in % only, without the unit symbol.

The following compounds have reported results that may help.
* Cc1ncsc1-c1ccc([C@@H](C)NC(=O)[C@H]2C[C@H](O)CN2C(=O)[C@H](NC(=O)CCOCCOCCOCCNC(=O)CCC(=O)Nc2cccc(Sc3ncc(N4CCC(C)(N)CC4)nc3N)c2Cl)C(C)(C)C)cc1 [Compound 21] | 85
* Cc1ncsc1-c1ccc([C@@H](C)NC(=O)[C@H]2C[C@H](O)CN2C(=O)[C@H](NC(=O)COCCOCCOCCOCCNC(=O)CCC(=O)Nc2cccc(Sc3ncc(N4CCC(C)(N)CC4)nc3N)c2Cl)C(C)(C)C)cc1 [Compound 22] | 95

# input for lookup
Input Cc1ncsc1-c1ccc([C@@H](C)NC(=O)[C@H]2C[C@H](O)CN2C(=O)[C@H](NC(=O)CCCCCCCCCCCN2CCN(CC(=O)Nc3cccc(Sc4ncc(N5CCC(C)(N)CC5)nc4N)c3Cl)CC2)C(C)(C)C)cc1 [Compound 24] , output reported % of SHP2 protein degradation in MV4;11 cell line.
6
